From: patent EP0243192B1

protocol: standard LD50 test, intraperitoneal administration to mice
studyConditions: mouse, in vivo, ip, read-out: LD₅₀
As shown below, each of these compounds has a reported LD50 value.

See these solved cases before continuing.
{"columns": ["smiles", "assayResult"],
 "data": [
  ["CCCCn1c(=O)c2nc(-c3ccc(/C=C/C(=O)O)cc3)[nH]c2n(CCCC)c1=O", "> 100 mg/kg"],
  ["Cn1c(=O)[nH]c(=O)c2nc(-c3ccc(/C=C/C(=O)O)cc3)[nH]c21", "> 500 mg/kg"],
  ["CC(C)Cn1c(=O)[nH]c(=O)c2nc(-c3ccc(/C=C/C(=O)O)cc3)[nH]c21", "> 100 mg/kg"],
  ["CC(C)Cn1c(=O)n(C)c(=O)c2nc(-c3ccc(/C=C/C(=O)O)cc3)[nH]c21", "> 100 mg/kg"],
  ["CCCCn1c(=O)n(C)c(=O)c2nc(-c3ccc(/C=C/C(=O)O)cc3)[nH]c21", "> 100 mg/kg"]
]}

Proceed to the following item.
Prompt: Reported LD50 for `Cn1c(=O)c2nc(-c3ccc(/C=C/C(=O)O)cc3)[nH]c2n(Cc2ccccc2)c1=O` : what is it?
Completion: > 100 mg/kg
